- Tested on: MDA-MB-468 breast
- TEST_NAME: NCI tumour cell line growth inhibition, 48 h
QUANTITY_MEASURED: GI50

Sample answers from the record:
| COMPOUND | GI50 |
| --- | --- |
| O=[N+]([O-])c1cc([N+](=O)[O-])c(N2CCCC2)cc1NN=C(c1ccc(O)cc1)c1ccc(O)cc1 | 2180 nM |
| C/C=C(/C(=C/C)c1ccc(O)cc1)c1ccc(O)cc1 | 2000 nM |
| CN1CCN(Cc2ccc(NC(=O)c3nc4ccc5[nH]ncc5c4c4c3CCCC4)cc2C(F)(F)F)CC1 | 797 nM |
| COc1cc(-c2cc(/C=C3\C(=O)Nc4ccc(Cl)cc43)[nH]n2)cc(OC)c1OC | 5230 nM |
| Cc1ccc(-c2nc(Nc3ccccc3C(=O)O)c3ccccc3n2)cc1 | 8290 nM |

Quick one: GI50 of O=NNc1ccc(S(=O)c2ccccc2)cn1 (stereo not given) ?
76200 nM

# GI50 lookup, item CCCCSSC(=S)N(CC)CC
65100 nM

I'd like to know its GI50. The compound in question is CCCCCCCCCCCCCCCCNC(=O)OC(C)C
4010 nM

Find the recorded GI50 belonging to CCSc1ccc2c(c1)N(CCCN1CCN(C)CC1)c1ccccc1S2 and report it.
1730 nM

* * *

- Test system: MDA-MB-468 breast
- TEST_NAME: NCI tumour cell line growth inhibition, 48 h
GI50 values, listed per item

Here's what some known entries look like.
| COMPOUND | READING |
| --- | --- |
| CC(C)(Oc1ccc(Cl)cc1)C(=O)NC1C2CC3CC1CC(NS(C)(=O)=O)(C3)C2 (centres undefined) | > 100 µM |
| COc1cc(-c2cncn2-c2ccc(-c3nc4ccc(F)cc4s3)cc2)ccc1F | 11.1 µM |
| COc1ccc(-c2cc3c(OC)c(OC)c(OC)cc3oc2=O)cc1 | 2.21 µM |

GET /values?readout=GI50&item= CCC(/C=C(C)/C=C/C(=O)c1c(O)c(-c2ccc(O)cc2)c[nH]c1=O)CO (centres undefined)
5.24 µM

* * *

Entries annotated with measured TGI
- Tested on: MDA-MB-468 breast
- TEST_NAME: NCI tumour cell line growth inhibition, 48 h
Numeric answer only, unit µM assumed.

| MOLECULE | TGI [µM] |
| --- | --- |
| CCC(/C=C(C)/C=C/C(=O)c1c(O)c(-c2ccc(O)cc2)c[nH]c1=O)CO (centres undefined) | 24.4 |

Consider now this further molecule.
Which TGI value belongs to Nc1nc2cc(-c3ccc4ncc(C(=O)N5CCOCC5)n4c3)ccc2o1 ?
45.5

* * *

Each record here notes measured TGI.
- System: MDA-MB-468 breast
- TEST_NAME: NCI tumour cell line growth inhibition, 48 h
Give the value in µM but do not write µM after it.

A selection of reference data follows.
| MOL_SMILES | READING |
| --- | --- |
| CN(CCO)C1CCN(c2ccc(Nc3ncc4c5ccnc(F)c5n(C5CCCC5)c4n3)nc2)CC1 | 33.2 |
| COC(=O)[C@@H]1CCCN1C(=O)[C@@H]1CCCN1C(=O)[C@H](Cc1ccccc1)NC(=S)Nc1cc(C(F)(F)F)cc(C(F)(F)F)c1 | 9.62 |
| O=c1ccc(N=Nc2ccccc2)ccc1Cl | 10.8 |
| COc1ccc(/C=C2\CS(=O)(=O)C/C(=C\c3ccc(OC)cc3)C2=O)cc1 | 5.18 |
| CN1CCN(Cc2ccc(NC(=O)c3cncc(C#Cc4cnc5ccc(OCC6(C)COC6)nn45)c3)cc2C(F)(F)F)CC1 | 0.36 |

Fill in the blank: the reported TGI of COc1ccc(-c2cnoc2-c2ccc(OC)cc2O)cc1 is ____.
5.46

Value lookup for TGI; key = O=[N+]([O-])c1cc([N+](=O)[O-])c(N2CCCC2)cc1NN=C(c1ccc(O)cc1)c1ccc(O)cc1
10.1

Need TGI of N=C1N(c2ccccc2)C(=S)C(=Nc2ccccc2)N1c1ccccc1 , thanks.
20.8

Which TGI reading was recorded for the compound C=CCOC1=CC(=O)c2ccccc2C1=O ?
5.14

* * *

- System: MDA-MB-468 breast
- TEST_NAME: NCI tumour cell line growth inhibition, 48 h; in the data active means GI50 below about 0.43 µM; inactive means the rest
Parameter call: string, one of yes = active, no = inactive

// known answers, use as guide
| COMPOUND | ASSIGNED_CATEGORY |
| --- | --- |
| COc1ccc(-c2cnoc2-c2ccc(OC)cc2O)cc1 | no |
| C=C1C(=O)O[C@H]2[C@H]1CC/C(COC(=O)NCc1ccc(Cn3c(=O)sn(CCI)c3=O)cc1)=C\CC[C@@]1(C)O[C@@H]21 | no |
| CCCCC/C=C/C(=O)CCc1ccc(O)c(OC)c1 | no |
| NS(=O)(=O)N(c1cc(C(F)(F)F)cc(C(F)(F)F)c1)C1CCN(Cc2ccc(C(F)(F)F)cc2)CC1 | no |
| C=C1C(=O)O[C@H]2[C@H]1CC/C(COC(=O)NCc1[nH]nc3ccccc13)=C\CC[C@@]1(C)O[C@@H]21 | no |
| COC(=O)[C@@H]1CCCN1C(=O)[C@@H]1CCCN1C(=O)[C@H](Cc1ccccc1)NC(=S)Nc1cc(C(F)(F)F)cc(C(F)(F)F)c1 | no |

Any idea what this test logged for CC(C)(C)CC(C)(C)c1ccc(OCCSC(=N)N)cc1 ?
yes

Which outcome was entered for the compound COc1ccc(/C=C2\CS(=O)(=O)C/C(=C\c3ccc(OC)cc3)C2=O)cc1 in this test?
no

Give the logged outcome of this assay for the following compound: CCOC(=O)c1ccc(NC(=O)Nc2nccs2)cc1
yes

In this assay, the call recorded for CN1CCN(Cc2ccc(NC(=O)c3cnc(F)c(C#Cc4cnc(N)c5ncccc45)c3)cc2C(F)(F)F)CC1 was what?
yes

Please let me know the test result on file for CN(C)c1ccc(O)c2c1CC1CC3C(N(C)C)C(=O)C(C(N)=O)=C(O)C3(O)C(=O)C1=C2O (stereo unspecified) .
no
